Test: 28-day study toxicokinetics of brincidofovir and CDV in plasma
Format: in vivo, Sprague-Dawley CD rats
Details: both sexes, Sprague-Dawley CD, rat, in vivo, iv, 15 mg/kg, plasma brincidofovir; Day 1; 15 mg/kg; combined male and female; Median
METRIC: AUC(0-t) (ng·h/mL)
One number for each entry, in ng·h/mL.

Challenge: If you can, please state the reported AUC(0-t) value of `CCCCCCCCCCCCCCCCOCCCOP(=O)(O)CO[C@H](CO)Cn1ccc(N)nc1=O` .
Response given: 8780

* * *

Exercise: state measured concentration at 1 h for each of the compounds provided.
Assay: Phase 2 toxicokinetics of brincidofovir and cidofovir in plasma
Type: in vivo, Sprague-Dawley CD rats
Details: female, Sprague-Dawley CD, rat, plasma, intravenous, 1 mg/kg, plasma; brincidofovir 1 mg/kg 2-h IV infusion; female rats; Day 1; 1 h; BLQ imputed as zero; read-out: Imputed Concentration, Mean
Kindly report the value followed by its unit.

1. CCCCCCCCCCCCCCCCOCCCOP(=O)(O)CO[C@H](CO)Cn1ccc(N)nc1=O; 137 ng/mL

Next compound, concentration at 1 h to be filled in.
Challenge: I am curious: what concentration at 1 h value has been reported for `Nc1ccn(C[C@@H](CO)OCP(=O)(O)O)c(=O)n1` ?
Response given: 0 ng/mL

* * *

Test: Phase 2 toxicokinetics of brincidofovir and cidofovir in plasma
Type: in vivo, Sprague-Dawley CD rats
Conditions: male, Sprague-Dawley CD, rat, plasma, intravenous, 15 mg/kg, plasma; 15 mg/kg; male rats; Day 7; 24 h; read-out: IC (Imputed Concentration), individual animals
METRIC: concentration at 24 h (ng/mL)
One number for each entry, in ng/mL.

Challenge: So what's the measured concentration at 24 h for this one? CCCCCCCCCCCCCCCCOCCCOP(=O)(O)CO[C@H](CO)Cn1ccc(N)nc1=O [Brincidofovir]
Response given: 1.85

* * *

Test: Plasma BCV PK following single dose oral tablet administration (Table 105)
Assay type: in vivo
Settings: human, 100 mg Oral Tablet, N = 52, geometric mean
METRIC: half-life (h)
Numbers only, in h.

Challenge: Endpoint output: half-life of `CCCCCCCCCCCCCCCCOCCCOP(=O)(O)CO[C@H](CO)Cn1ccc(N)nc1=O` . Value?
Response given: 7.62

* * *

Assay: Phase 2 toxicokinetics of brincidofovir and cidofovir in plasma
Assay type: in vivo, Sprague-Dawley CD rats
Settings: female, Sprague-Dawley CD, rat, plasma, iv, 15 mg/kg, brincidofovir in plasma; 15 mg/kg 2-hour IV infusion, Female rats, Day 1
METRIC: AUC(0-t)

Challenge: Fill in: AUC(0-t) of CCCCCCCCCCCCCCCCOCCCOP(=O)(O)CO[C@H](CO)Cn1ccc(N)nc1=O [Brincidofovir] is ___
Response given: 7360 ng·h/mL

* * *

Assay: 28-day study toxicokinetics of brincidofovir and CDV in plasma
Assay type: in vivo, Sprague-Dawley CD rats
Settings: both sexes, Sprague-Dawley CD, rat, in vivo, iv, 1 mg/kg, plasma brincidofovir; Day 1; 1 mg/kg; combined male and female; Mean; only 2 quantifiable data points
METRIC: AUC(0-t)
Field: value (include unit after the number)

Challenge: Requested read-out: AUC(0-t). Entry: `CCCCCCCCCCCCCCCCOCCCOP(=O)(O)CO[C@H](CO)Cn1ccc(N)nc1=O`
Response given: 319 ng·h/mL
